Tested on: CEM cells HIV-1 protection, formazan growth assay
Assay info: NCI AIDS Antiviral Assay;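 active = compounds giving half or more protection of infected cells from virus-caused growth loss, again on retest; inactive = the rest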
Where a SMILES comes first, the peptide text is derived from it. The star is where a group is joined. Boc = CC(C)(C)OC(=O)*
Outcome codes: 1.0 = active, 0.0 = inactive

[[record]]
compound = "CCOC(=O)c1ccc(CSc2ccccc2)cc1"
group_label = 0.0

[[record]]
compound = "NS(=O)(=O)c1cc2c(cc1Cl)NC(/C(=N/NC(=O)c1ccncc1)C1C(=O)NC(=O)NC1=O)=NS2(=O)=O"
group_label = 0.0

[[record]]
compound = "COc1ccc(OC)c(-c2cc(=O)c3c(OC)c(OC)c(OC)c(OC)c3o2)c1"
group_label = 0.0

[[record]]
compound = "Nc1nc(Cl)c(N)c(NCC2(CO)CC(Cc3ccccc3)C2)n1 (configuration not stated)"
group_label = 0.0

[[record]]
compound = "COc1cc(COC(=O)N2CSCC2C(=O)O)c([N+](=O)[O-])cc1OC (configuration not stated)"
group_label = 0.0

[[record]]
compound = "N#C/C(=C\\c1ccc(-c2ccccc2)cc1)c1ccc(Cl)cc1"
group_label = 0.0

[[record]]
compound = "CC(C)CCCC(C)[C@H]1CC[C@H]2[C@@H]3CC[C@H]4C[C@@H](CCC=C(c5cc(Cl)c(O)c(C(=O)O)c5)c5cc(Cl)c(O)c(C(=O)O)c5)CC[C@]4(C)[C@H]3CC[C@]12C (some centres not stated)"
group_label = 1.0

[[record]]
compound = "O=C(O)[C@@H]1CSC(c2ccccc2F)N1 (some centres not stated)"
group_label = 0.0

[[record]]
compound = "N.N.N.N.N.N#Cc1nn[n-]n1.[Cl-].[Co+3]"
group_label = 0.0

[[record]]
compound = "CCCNC(=S)NN1C2CSC1CS2"
group_label = 0.0

[[record]]
compound = "Nc1nc(Cl)cc(NCC2(CO)COC2)n1"
group_label = 0.0

[[record]]
compound = "CSc1cc(-c2ccccc2)s[s+]1 (tested in a mixture with another compound)"
group_label = 0.0

[[record]]
compound = "CSc1nnc2n(C)c3c(=O)n(C)c(=O)n(C)c3n12"
group_label = 0.0

[[record]]
compound = "CC1Nc2ccccc2NC1C=C(C#N)C#N (configuration not stated)"
group_label = 0.0

[[record]]
compound = "CC(C)(C)OC(=O)NC(Cc1ccc(O)cc1)C(=O)N1CCCC1C(=O)O (stereo not drawn) (Boc-Tyr-Pro-OH; configuration not given here)"
group_label = 0.0

[[record]]
compound = "COc1cc2c(cc1O)C1CC(CC3CCCCN31)OC(=O)/C=C\\c1ccc(O)c-2c1 (configuration not stated)"
group_label = 0.0

[[record]]
compound = "Cc1nnc(NS(=O)(=O)c2ccc(N=NC3SC(=S)NC3=O)cc2)s1 (configuration not stated)"
group_label = 0.0

[[record]]
compound = "O=C1c2ccccc2C2(O)Nc3c(ccc4ccccc34)C12O (configuration not stated)"
group_label = 0.0

[[record]]
compound = "COc1cccc(NC(=O)N/C(=C/c2ccc(N(CCC#N)CCC#N)cc2)NC(=O)c2cc([N+](=O)[O-])ccc2Cl)c1"
group_label = 0.0

[[record]]
compound = "CN(C(=O)c1ccco1)C(=S)N1CCN(c2ccccc2)CC1"
group_label = 0.0

[[record]]
compound = "CCCCCCCCCCCc1c2oc3ccc([N+](=O)[O-])cc3nc-2cc(Nc2cc([N+](=O)[O-])ccc2O)c1=O"
group_label = 0.0

[[record]]
compound = "CCOC(=O)NN(C(=O)OCC)c1ccc(N=Nc2ccc(OC)cc2)n1C"
group_label = 0.0

[[record]]
compound = "O=S1(=O)OCCOS(=O)(=O)C1Cl"
group_label = 0.0

[[record]]
compound = "CCN(CC)C(=S)N/N=C/c1cc([N+](=O)[O-])ccc1O"
group_label = 0.0

[[record]]
compound = "C=C1CN(S(=O)(=O)c2ccc(C)cc2)CCCN(CC2CC=CCC2)CCCN(S(=O)(=O)c2ccc(C)cc2)C1 (configuration not stated)"
group_label = 0.0

[[record]]
compound = "Cc1cc(Cc2c(F)c(F)c(Cc3cc(C)no3)c(F)c2F)on1"
group_label = 0.0

[[record]]
compound = "COc1ccc2c(c1)C(=O)OCCC2"
group_label = 0.0

[[record]]
compound = "N#Cc1c(-c2ccccc2)c(C#N)c(=S)n(C2OC(CO)C(O)C(O)C2O)c1N (configuration not stated)"
group_label = 0.0

[[record]]
compound = "C=CN1C(=O)OC[C@@H]1c1ccccc1"
group_label = 0.0

[[record]]
compound = "Cc1cc(N(CCC#N)CCC#N)ccc1N=Nc1ccccc1[N+](=O)[O-]"
group_label = 0.0

[[record]]
compound = "[Cl-].[Cl-].[Pt+4].[S-]c1ncccn1.[S-]c1ncccn1"
group_label = 0.0

[[record]]
compound = "CCCCN(CCCC)CC(C(=O)Nc1ccc([N+](=O)[O-])cc1[N+](=O)[O-])/C(C)=N\\NC(=O)C[N+](C)(C)C (configuration not stated)"
group_label = 0.0

[[record]]
compound = "COC(=O)[C@@](NC(=O)OCc1ccccc1)([C@H](C)O)C(F)(F)F"
group_label = 0.0

[[record]]
compound = "O=C1NC2(C=Cc3c(ccc4ccccc34)O2)Oc2ccccc21 (configuration not stated)"
group_label = 0.0

[[record]]
compound = "CN(c1ccccc1Cl)S(=O)(=O)c1ccccc1"
group_label = 0.0

[[record]]
compound = "CC(=O)c1cccc(NCn2nnc3ccccc32)c1"
group_label = 0.0

[[record]]
compound = "C[C@]1(CI)OC(=O)N2CCC[C@H]21"
group_label = 0.0

[[record]]
compound = "CSc1n[n+](C)cc(N)c1N"
group_label = 0.0

[[record]]
compound = "CCCCCCCCSc1ncnc2[nH]ncc12"
group_label = 0.0

[[record]]
compound = "COc1cc(NS(=O)(=O)c2ccc(C(C)=O)cc2)nc(OC)n1"
group_label = 0.0

[[record]]
compound = "Cc1c([O-])c([O-])c(C)c2c1OCO2.[C-]#[O+].[C-]#[O+].[C-]#[O+].[Re].c1ccc([PH+](c2ccccc2)c2ccccc2)cc1"
group_label = 0.0

[[record]]
compound = "C/C=C/C=C/c1nc(C#N)c(N)o1"
group_label = 0.0


====

System: CEM cells HIV-1 protection, formazan growth assay
Assay info: NCI AIDS Antiviral Assay
Reported conditions: measured here: growth of uninfected CEM cells
pIC50: −log10 of the molar value.
Measured endpoint: pIC50

[[record]]
compound = "c1ccc(C2SCC3COCN32)cc1 (stereo not drawn)"
measured_endpoint = "pIC50"
val = "< 3.62"

[[record]]
compound = "CCCCOC(=O)C(=O)/C(=C/N1C(=O)/C(=C/C(C)=C/c2ccccc2)SC1=S)C(=O)C=C(C)C"
measured_endpoint = "pIC50"
val = 4.83

[[record]]
compound = "O=C(c1ccc(F)cc1)c1cccc(C(=O)c2ccc(F)cc2)n1"
measured_endpoint = "pIC50"
val = "< 4.51"

[[record]]
compound = "COCc1cn(C2CCC(CO)O2)c(=O)nc1N (stereo not drawn)"
measured_endpoint = "pIC50"
val = "< 3.31"

[[record]]
compound = "NC(=O)NC(=O)C(Cc1ccc(Cl)cc1)c1ccccc1 (stereo not drawn)"
measured_endpoint = "pIC50"
val = "< 4.07"

[[record]]
compound = "S=c1nc(-c2ccnc(-c3nc(=S)[nH][nH]3)c2)[nH][nH]1"
measured_endpoint = "pIC50"
val = "< 4.59"

[[record]]
compound = "CCCCN(CCCC)CC(C(=O)Nc1ccc([N+](=O)[O-])cc1[N+](=O)[O-])/C(C)=N\\NC(=O)C[N+](C)(C)C (stereo not drawn)"
measured_endpoint = "pIC50"
val = "< 4.33"

[[record]]
compound = "C=Cc1ccc(CC)cn1"
measured_endpoint = "pIC50"
val = "< 3.70"

[[record]]
compound = "COc1nc(N=[N+]=[N-])nc(-c2c(OC)ccc3ccccc23)n1"
measured_endpoint = "pIC50"
val = 4.32

[[record]]
compound = "COC(=O)C(CC1CC(=O)N(CCc2c[nH]c3ccccc23)C1)C(=O)OC (stereo not drawn)"
measured_endpoint = "pIC50"
val = "< 3.72"

[[record]]
compound = "NS(=O)(=O)c1ccc(NNc2c3ccccc3nc3c(C(=O)Nc4ccc(S(=O)(=O)Nc5ncccn5)cc4)cccc23)cc1"
measured_endpoint = "pIC50"
val = 4.57

[[record]]
compound = "CN(/N=C/C=N/N(C)C1=NCCCN1)C1=NCCCN1"
measured_endpoint = "pIC50"
val = "< 3.70"

[[record]]
compound = "CC(=O)N1N=C(c2ccc3ccccc3c2O)CC1c1ccc(N(C)C)cc1 (stereo not drawn)"
measured_endpoint = "pIC50"
val = "< 4.30"

[[record]]
compound = "CCCCCCc1cc2c(C)c(C)c(=O)oc2cc1OCCCOc1cc2oc(=O)c(C)c(C)c2cc1CCCCCC"
measured_endpoint = "pIC50"
val = "< 4.64"

[[record]]
compound = "COc1cc(/C=C2\\CCC(C)C3C2=NN(C(C)=O)C3c2cc(OC)c(OC)c(OC)c2)cc(OC)c1OC (stereo not drawn)"
measured_endpoint = "pIC50"
val = "< 4.00"

[[record]]
compound = "CN(C)CCOC1(CC2CCCCC2)CCC(C(C)(C)C)CC1 (stereo not drawn)"
measured_endpoint = "pIC50"
val = 5.09

[[record]]
compound = "c1ccc(C2=NOC3COc4ccccc4OCC23)cc1 (stereo not drawn)"
measured_endpoint = "pIC50"
val = "< 4.03"

[[record]]
compound = "Cc1ccc(/C=C2/NC(=S)SC2=O)cc1"
measured_endpoint = "pIC50"
val = 3.77

[[record]]
compound = "CC(=O)N1CCC2(C=Nc3ccccc32)CC1"
measured_endpoint = "pIC50"
val = "< 4.64"

[[record]]
compound = "O=[N+]([O-])c1cccc(/C=N/NC2=CS(=O)(=O)C=C2)c1"
measured_endpoint = "pIC50"
val = "< 4.17"

[[record]]
compound = "Cc1ccc(S(=O)(=O)Sc2nnnn2C)cc1"
measured_endpoint = "pIC50"
val = 4.27

[[record]]
compound = "ONC1=Nc2ccccc2C(=S)N2CSCC12 (stereo not drawn)"
measured_endpoint = "pIC50"
val = "< 3.70"

[[record]]
compound = "CN1C(CC(O)c2ccccc2)CCCC1CC(O)c1ccccc1 (stereo not drawn)"
measured_endpoint = "pIC50"
val = "< 3.70"


Measured values drawn from PubChem BioAssay AID179 for this set.
